Kindly supply the reported IC50 values for the records listed here.
- Assayed target: cloned human NR1/NR2B ion channels (Homo sapiens (Human), UniProt Q05586+Q13224)
- Sequence (Q13224 27-1484, other chains not shown): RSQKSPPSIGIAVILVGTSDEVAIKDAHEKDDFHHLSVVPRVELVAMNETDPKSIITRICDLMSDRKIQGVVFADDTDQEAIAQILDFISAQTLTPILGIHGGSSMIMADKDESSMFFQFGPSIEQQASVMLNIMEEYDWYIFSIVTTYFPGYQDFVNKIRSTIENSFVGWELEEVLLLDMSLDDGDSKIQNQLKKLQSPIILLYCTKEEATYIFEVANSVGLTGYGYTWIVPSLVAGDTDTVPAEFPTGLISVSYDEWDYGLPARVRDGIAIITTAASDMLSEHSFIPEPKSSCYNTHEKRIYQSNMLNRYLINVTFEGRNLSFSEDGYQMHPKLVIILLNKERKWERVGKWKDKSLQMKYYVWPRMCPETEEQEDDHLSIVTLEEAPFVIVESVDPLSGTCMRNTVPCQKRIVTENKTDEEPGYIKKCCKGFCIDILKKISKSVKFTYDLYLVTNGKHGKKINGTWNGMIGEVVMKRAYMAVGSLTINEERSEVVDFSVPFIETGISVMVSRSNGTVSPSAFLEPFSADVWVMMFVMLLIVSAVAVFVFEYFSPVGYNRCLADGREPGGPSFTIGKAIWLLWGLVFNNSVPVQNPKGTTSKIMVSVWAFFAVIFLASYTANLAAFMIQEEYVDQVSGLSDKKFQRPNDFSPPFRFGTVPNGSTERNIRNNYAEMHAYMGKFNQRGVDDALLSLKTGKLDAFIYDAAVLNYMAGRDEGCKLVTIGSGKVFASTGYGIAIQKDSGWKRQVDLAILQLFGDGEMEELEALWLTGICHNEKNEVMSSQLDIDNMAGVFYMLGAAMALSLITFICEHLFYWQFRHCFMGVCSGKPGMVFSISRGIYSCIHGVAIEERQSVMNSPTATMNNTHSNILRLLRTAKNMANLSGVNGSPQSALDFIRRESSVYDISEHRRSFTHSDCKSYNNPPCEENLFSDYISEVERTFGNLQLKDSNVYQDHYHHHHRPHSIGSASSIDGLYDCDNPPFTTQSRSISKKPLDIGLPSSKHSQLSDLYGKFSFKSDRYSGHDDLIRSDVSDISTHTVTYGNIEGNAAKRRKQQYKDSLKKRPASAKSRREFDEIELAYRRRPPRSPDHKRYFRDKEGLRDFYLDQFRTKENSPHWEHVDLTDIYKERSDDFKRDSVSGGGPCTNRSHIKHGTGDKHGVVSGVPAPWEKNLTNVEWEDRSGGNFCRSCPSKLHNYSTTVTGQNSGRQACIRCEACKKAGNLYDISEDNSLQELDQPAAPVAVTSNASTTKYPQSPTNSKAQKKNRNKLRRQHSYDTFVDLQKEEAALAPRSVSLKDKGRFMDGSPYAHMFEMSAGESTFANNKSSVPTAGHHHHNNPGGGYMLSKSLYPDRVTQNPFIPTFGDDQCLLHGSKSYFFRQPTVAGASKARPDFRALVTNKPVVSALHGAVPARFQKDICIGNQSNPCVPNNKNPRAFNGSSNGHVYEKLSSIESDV
- Method: HNR2BC: effects of test articles on cloned human NR1/NR2B ion channels expressed in mammalian cells (FLIPR calcium flux)
- Format: cell-based
- Study conditions: cloned human NR1/NR2B ion channels, Table 5

State the recorded IC50 for every item in the following list.
1. O=C(Cn1cc(Cl)c2ncc(-c3ccc(F)cc3)cc21)C1CC1 [Example 384]
2. O=C(Cn1cc(F)c2ncc(-c3ccccc3F)cc21)N1CC(F)C1 [Example 507]
3. O=C(Cn1cc(F)c2ncc(-c3cc(F)c(F)c(F)c3)cc21)N1CCC1 [Example 383]
4. Cc1sc(C)c(-c2cnc3ccn(CC(=O)N(C)C)c3c2)c1C [Example 428]
5. O=C(Cn1cc(F)c2ncc(-c3ccccc3)cc21)N1CCC1 [Example 497]
6. CN(C)C(=O)Cn1ccc2ncc(-c3ccccc3F)cc21 [Example 431]

Found:
1: 20 nM; 2: 20 nM; 3: 15.8 nM; 4: 100 nM; 5: 31.6 nM; 6: 251 nM

State the recorded IC50 for every item in the following list.
1. O=C(Cn1cc(F)c2ncc(-c3ccc(F)c(F)c3F)cc21)N1CC(F)C1 [Example 486]
2. O=C(Cn1ccc2ncc(-c3ccc(F)c(F)c3)cc21)N1CCCC1 [Example 367]
3. CCc1ccc(-c2cnc3c(F)cn(CC(=O)N(C)C)c3c2)s1 [Example 393]
4. Cc1cn(CC(=O)N2CCCC2)c2cc(-c3ccc(F)c(F)c3F)cnc12 [Example 591]
5. O=C(Cn1cc(F)c2ncc(-c3cccc(Cl)c3F)cc21)N1CC(F)C1 [Example 490]

Found:
["25.1 nM", "50.1 nM", "126 nM", "126 nM", "20 nM"]

State the recorded IC50 for every item in the following list.
1. Cc1cn(CC(=O)N(C)C)c2cc(-c3ccc(F)c(F)c3)cnc12 [Example 549]
2. Cc1ccc(-c2cnc3c(C)cn(CC(=O)N4CC(F)C4)c3c2)s1 [Example 634]

Found:
1. 79.4 nM
2. 631 nM

* * *

Kindly supply the reported pIC50 values for the records listed here.
- Assayed target: cloned human NR1/NR2B ion channels (Homo sapiens (Human), UniProt Q05586+Q13224)
- Method: HNR2BC: effects of test articles on cloned human NR1/NR2B ion channels expressed in mammalian cells (FLIPR calcium flux)
- Assay type: cell-based
- Study conditions: cloned human NR1/NR2B ion channels, Table 5
Give bare numbers, as −log10 of the molar value.

Some compounds with known pIC50 results, for comparison:
Substance smiles | pIC50
O=C(Cn1cc(F)c2ncc(-c3cccc(F)c3)cc21)N1CC(F)C1 | 7.60
O=C(Cn1cc(Cl)c2ncc(-c3cccc(Cl)c3F)cc21)N1CCC1 | 7.40
Cc1c(F)ccc(-c2cnc3c(F)cn(CC(=O)N4CCC4)c3c2)c1F | 7.40

State the recorded pIC50 for every item in the following list.
1. Cc1cccc(-c2cnc3c(Cl)cn(CC(=O)N4CC(F)C4)c3c2)c1F
2. CN(C)C(=O)Cn1ccc2ncc(-c3cc(Cl)sc3Cl)cc21
3. Cc1c(F)ccc(-c2cnc3c(Cl)cn(CC(=O)N(C)C)c3c2)c1F
4. CCc1cccc(-c2cnc3c(F)cn(CC(=O)N4CCC4)c3c2)c1
5. CN(C)C(=O)Cn1ccc2ncc(-c3ccccc3)cc21
6. O=C(Cn1cc(Cl)c2ncc(-c3ccccc3F)cc21)N1CCC1

Found:
7.60
6.90
7.20
7.10
7.60
6.90
